Provide the recorded growth inhibition for the entries that follow.
procedure text: NCI Yeast Anticancer Drug Screen. Data for the CLN2oe strain (AID 163);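 further: 0% = growth of vehicle-only control cultures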
protocol conditions: S. cerevisiae CLN2oe strain, at 1.2 µM, stronger effect = higher value
The panel holds about 79,000 compounds, 15% with a hit somewhere; the sample as a whole holds those more often.
Could you give me the number in %? Just the number is fine.

Fill in reported growth inhibition for this entry: CN(C)CCC(C(=O)C(Br)Br)(c1ccccc1)c1ccccc1
0

Fill in reported growth inhibition for this entry: CC[PH+](CC)CC.CC[PH+](CC)CC.[Au]
2

Fill in reported growth inhibition for this entry: CS(=O)(=O)OCCN(CCOS(C)(=O)=O)c1ccc(C=O)cc1
-10

Fill in reported growth inhibition for this entry: C/C(=N\NC(N)=O)C(CN1CCOCC1)C(c1ccccc1)c1c(O)c2ccccc2oc1=O (centres undefined)
4

Origin of measurements: PubChem BioAssay (NCI)
